B1: FOXJ1 (parent)
chain: SAIYKWITDNFCYFRHADPTWQNS

# Variants of: B1
# protocol.summary: protein stability index of a GFP-peptide fusion (GPS, HEK-293T) (PSI 1-6); higher = more stable;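 note: lentivirally expressed fusions sorted by FACS into six bins by GFP to DsRed ratio, PSI derived from sequencing read proportions per bin multiplied by bin number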
# stated.conditions: c terminus: a fixed tail appended
Parameter threshold = 3. Response is 1 (yes) when protein stability index meets or exceeds it, else 0 (no).

# variant.id, assigned.label
measured = [
    ("F11W", "0 (no)"),
]

Incoming: Hi, just wondering whether S1E shows protein stability index of 3 or higher.
Outgoing: 1 (yes)

Incoming: Hi, just wondering whether F14D shows protein stability index of 3 or higher.
Outgoing: 0 (no)

Incoming: Hi, just wondering whether H16W shows protein stability index of 3 or higher.
Outgoing: 0 (no)

Incoming: Hi, just wondering whether W6E shows protein stability index of 3 or higher.
Outgoing: 0 (no)

Incoming: Hi, just wondering whether Y4F shows protein stability index of 3 or higher.
Outgoing: 0 (no)
